Please respond with reported CC50 at 72 h for every item in the list.
assay: CellTiter 96 AQueous one solution cell proliferation assay; format: cell-based; details: human, PLC/PRF/5 cells

# return recorded CC50 at 72 h for input OCCCCCCC1COOC2(CCCCCCCCCCC2)OOC1 56 µM

Consider the molecule NC(=O)c1ncn([C@@H]2O[C@H](CO)[C@@H](O)[C@H]2O)n1 [RBV, Ribavirin, reference compound] and give its recorded CC50 at 72 h. > 100 µM
